Test system: WI-38 VA13
Test: Growth inhibition of human VA13 cells after 48 hrs by WST8 assay
Assay type: functional, cell-based
Settings: WI-38 VA13, 48 h
pIC50: −log10 of the molar value.
// label = Fulfilled if pIC50 is not less than 4, otherwise Not fulfilled

compound.string	study.target	classification
COc1cc(C[C@@H]2C(=O)OC[C@H]2Cc2cc(OC)c3c(c2)OCO3)ccc1O	WI-38 VA13	Not fulfilled
COc1cc(C[C@@H]2C(=O)OC[C@H]2Cc2cc(OC)c3c(c2)OCO3)cc(OC)c1O	WI-38 VA13	Not fulfilled
COc1cc(C[C@@H]2C(=O)OC[C@H]2Cc2cc(OC)c3c(c2)OCO3)cc(O)c1O	WI-38 VA13	Not fulfilled
CC(=O)O[C@H]1C(=O)[C@@]2(C)[C@H]([C@H](OC(=O)c3ccccc3)[C@]3(O)C[C@H](OC(=O)[C@H](O)[C@@H](NC(=O)c4ccccc4)c4ccccc4)C(C)=C1C3(C)C)[C@]1(OC(C)=O)CO[C@@H]1C[C@@H]2O	WI-38 VA13	Fulfilled
COc1cc([C@@H](O)[C@H]2C(=O)OC[C@@H]2Cc2cc(OC)c3c(c2)OCO3)cc(OC)c1O	WI-38 VA13	Not fulfilled
COc1cc(C[C@@H](CO)[C@H](CO)Cc2cc(OC)c3c(c2)OCO3)cc2c1OCO2	WI-38 VA13	Not fulfilled
COc1cc(C[C@H](COC(C)=O)[C@@H](COC(C)=O)Cc2cc(OC)c3c(c2)OCO3)cc2c1OCO2	WI-38 VA13	Not fulfilled
COc1cc(C[C@@H]2C(=O)OC[C@H]2Cc2ccc3c(c2)OCO3)cc2c1OCO2	WI-38 VA13	Fulfilled
COc1cc(C[C@@H]2C(=O)OC[C@H]2Cc2ccc3c(c2)OCO3)cc(OC)c1O	WI-38 VA13	Not fulfilled
COc1cccc2c1C(=O)c1c(O)c3c(c(O)c1C2=O)C[C@@](O)(C(=O)CO)C[C@@H]3O[C@H]1C[C@H](N)[C@H](O)[C@H](C)O1	WI-38 VA13	Fulfilled
COc1cc(C[C@@H]2COC(=O)[C@H]2Cc2ccc3c(c2)OCO3)cc2c1OCO2	WI-38 VA13	Not fulfilled
COc1cc(/C=C2/C(=O)OC[C@H]2Cc2cc(OC)c3c(c2)OCO3)cc(OC)c1O	WI-38 VA13	Not fulfilled

----------
System: WI-38 VA13
Assay: Growth inhibition of human VA13 cells after 48 hrs by WST8 assay
Assay type: functional, cell-based
Conditions: WI-38 VA13, 48 h
pIC50: −log10 of the molar value.
assay.readout: pIC50

>>> print(df.to_string())
                            compound_string  study_target  measured
0  COc1cc(C[C@@H]2COC(=O)[C@H]2Cc2cc(OC)c3c(c2)OCO3)cc2c1OCO2    WI-38 VA13      3.89
1  COc1cc(C(=O)[C@@H]2C(=O)OC[C@H]2Cc2cc(OC)c3c(c2)OCO3)cc(OC)c1O    WI-38 VA13      3.90
2  COc1cc(C[C@@H]2C(=O)OC[C@H]2Cc2cc(OC)c3c(c2)OCO3)cc(OC)c1OC    WI-38 VA13      3.93
